- tested on: KRAS-G13D (Homo sapiens, UniProt P01116, G13D)
- Sequence (P01116 with tags, fused parts or gaps isoform P01116-2 G13D): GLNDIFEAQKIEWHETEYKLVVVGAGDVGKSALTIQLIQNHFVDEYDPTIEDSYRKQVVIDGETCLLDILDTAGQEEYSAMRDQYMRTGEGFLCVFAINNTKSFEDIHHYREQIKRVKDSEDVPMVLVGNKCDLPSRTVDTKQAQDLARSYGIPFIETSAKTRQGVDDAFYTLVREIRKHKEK
- assay comment: SOS-catalyzed nucleotide exchange assay (Procedure A, TR-FRET), KRAS-G13D
- Format: biochemical
- conditions: nucleotide exchange, Procedure A; read-out: KRAS G13D GNE IC50
Please provide measured IC50 for the entries that follow.

Query: IC50; subject: C[C@H](N(C)C)[C@@]1(COc2nc(N3CCOC[C@@](C)(O)C3)c3c(n2)sc2c(-c4c(C5CC5)c(Cl)cc5[nH]ncc45)nccc23)CC1(F)F [Ex-215]
38.9 nM

Try C[C@@]1(O)COCCN(c2nc(OC[C@@]34CCCN3C[C@H](F)C4)nc3sc4c(-c5c(C6CC6)c(C(F)(F)F)cc6[nH]ncc56)nccc4c23)C1 [Ex-76] next.
7.22 nM

Try Cc1cc2[nH]ncc2c(-c2nncc3c2sc2nc(OC[C@@]45CCCN4C[C@H](F)C5)nc(N4CCOC[C@@](C)(O)C4)c23)c1C1CC1 [Ex-279] next.
7.59 nM

Try C#Cc1c(C)cc2[nH]ncc2c1-c1nccc2c1sc1nc(OC[C@@]34CCCN3C[C@H](F)C4)nc(N3CCOC[C@@](C)(O)C3)c12 [Ex-33] next.
19.7 nM

Try Cc1cc2[nH]nc(C)c2c(-c2nccc3c4c(N5CCOC[C@@](C)(O)C5)nc(OC[C@@]56CCCN5C[C@H](F)C6)nc4n(C)c23)c1C(F)F (single isomer, unassigned) [Ex-8] next.
2090 nM

Try C#Cc1c(F)ccc2cc3[nH]ncc3c(-c3nccc4c3sc3nc(OC[C@@]56CCCN5C[C@H](F)C6)nc(N5CCOC[C@@](C)(O)C5)c34)c12 [Ex-160] next.
4.55 nM

Try C[C@@]1(O)COCCN(c2nc(OC[C@@]34CCCN3C/C(=C/F)C4)nc3sc4c(-c5c(C6CC6)c(Cl)cc6[nH]ncc56)nccc4c23)C1 [Ex-209] next.
13.6 nM

Try COC1(C)CN(C[C@@]2(COc3nc(N4CCOC[C@@](C)(O)C4)c4c(n3)sc3c(-c5c(C6(F)CC6)c(Cl)cc6[nH]ncc56)nccc34)CC2(F)F)C1 [Ex-240] next.
45.8 nM

Try Cc1cc2[nH]ncc2c(-c2nccc3c2oc2nc(OC[C@]4(CN(C)C)CC4(F)F)nc(N4CCOC[C@@](C)(O)C4)c23)c1C(F)(F)F [Ex-291] next.
210 nM

Try Cc1cc2[nH]ncc2c(-c2nccc3c2sc2nc(OC[C@@]45CCCN4C[C@H](F)C5)nc(N4CCOC[C@@](C)(O)C4)c23)c1Cl [Ex-32] next.
111 nM

Try Cc1cc2[nH]ncc2c(-c2nccc3c2sc2nc(OC[C@@]45CCCN4C[C@H](F)C5)nc(N4CCOC[C@@](C)(O)C4)c23)c1C#N [Ex-34] next.
1090 nM

Try C[C@@]1(O)COCCN(c2nc(OC[C@@]34CCCN3C[C@H](F)C4)nc3sc4c(-c5c(-c6ccco6)c(Cl)cc6[nH]ncc56)nccc4c23)C1 [Ex-148] next.
20.4 nM
